Give switch fluorescence ratio for every item shown.
Test system: ATP;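 further: ATP exposure 15 min at 22 °C before imaging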
assay_name: switch fluorescence ratio, 500 uM ATP over buffer (Cy3 cluster intensity, sum of 5 cycles each) (fold (ratio)); higher = stronger signal-on switching upon ATP binding; sequences stand for … in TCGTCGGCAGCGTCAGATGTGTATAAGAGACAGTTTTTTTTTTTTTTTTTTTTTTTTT…TC
experimental_conditions: aptamer strand: ATP DNA aptamer (quencher-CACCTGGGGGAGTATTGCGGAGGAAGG + anchor), 100 nM annealed; ATP concentration: 500 uM

Query string: # query: switch fluorescence ratio of entry GGTATACGTA
Result string: 0.935

Query string: # query: switch fluorescence ratio of entry TAAAGGTTCT
Result string: 1.02

Query string: # query: switch fluorescence ratio of entry ATGCATTAAG
Result string: 0.992

Query string: # query: switch fluorescence ratio of entry TCAGCGTACG
Result string: 1.01

Query string: # query: switch fluorescence ratio of entry AGAGCATATG
Result string: 1.02

Query string: # query: switch fluorescence ratio of entry TAACTTTGGC
Result string: 0.954

----------
System: ATP;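 further: ATP exposure 15 min at 22 °C before imaging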
assay_name: switch fluorescence ratio, 500 uM ATP over buffer (Cy3 cluster intensity, sum of 5 cycles each) (fold (ratio)); higher = stronger signal-on switching upon ATP binding; sequences stand for … in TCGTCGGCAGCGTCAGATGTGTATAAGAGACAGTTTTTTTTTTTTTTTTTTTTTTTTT…TC
experimental_conditions: aptamer strand: ATP DNA aptamer (quencher-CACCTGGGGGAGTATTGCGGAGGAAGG + anchor), 100 nM annealed; ATP concentration: 500 uM
Give switch fluorescence ratio for every item shown.
Could you respond with only the numeric value?

Query string: # query: switch fluorescence ratio of entry CATCTATTTT
Result string: 1

Query string: # query: switch fluorescence ratio of entry ATCTGGCGTC
Result string: 0.998

Query string: # query: switch fluorescence ratio of entry AACAGGCGGG
Result string: 0.993

Query string: # query: switch fluorescence ratio of entry ACCAAGTTGG
Result string: 0.993

Query string: # query: switch fluorescence ratio of entry ATGATCGGAT
Result string: 0.977

Query string: # query: switch fluorescence ratio of entry AGATTTTGCA
Result string: 0.989

Query string: # query: switch fluorescence ratio of entry GCGTATTTTT
Result string: 1.01

Query string: # query: switch fluorescence ratio of entry AGGTGTAGGC
Result string: 0.979

Query string: # query: switch fluorescence ratio of entry GAAGATAGGG
Result string: 0.998

Query string: # query: switch fluorescence ratio of entry CAAAAAGAGC
Result string: 0.976

Query string: # query: switch fluorescence ratio of entry GGAGTAAAGA
Result string: 0.992

Query string: # query: switch fluorescence ratio of entry GGCGGTGGGT
Result string: 0.999

Query string: # query: switch fluorescence ratio of entry CTAAGGGATT
Result string: 1.01

Query string: # query: switch fluorescence ratio of entry TGTGGGTATA
Result string: 0.995

Query string: # query: switch fluorescence ratio of entry ATCAAAATTG
Result string: 1.01

Query string: # query: switch fluorescence ratio of entry GGGGCAGCCG
Result string: 1.01

----------
Test system: ATP;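 further: ATP exposure 15 min at 22 °C before imaging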
assay_name: switch fluorescence ratio, 500 uM ATP over buffer (Cy3 cluster intensity, sum of 5 cycles each) (fold (ratio)); higher = stronger signal-on switching upon ATP binding; sequences stand for … in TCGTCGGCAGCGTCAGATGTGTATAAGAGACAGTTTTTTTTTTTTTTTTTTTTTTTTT…TC
experimental_conditions: aptamer strand: ATP DNA aptamer (quencher-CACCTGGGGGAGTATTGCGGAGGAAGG + anchor), 100 nM annealed; ATP concentration: 500 uM
Give switch fluorescence ratio for every item shown.
Could you respond with only the numeric value?

Query string: Fill in the recorded switch fluorescence ratio for this sequence, with ATP as test system: AAGTACTATC
Result string: 1.26

Query string: Fill in the recorded switch fluorescence ratio for this sequence, with ATP as test system: ATCATAGCCG
Result string: 1.07

Query string: Fill in the recorded switch fluorescence ratio for this sequence, with ATP as test system: TTGTATGTAC
Result string: 1.22

Query string: Fill in the recorded switch fluorescence ratio for this sequence, with ATP as test system: CACGAAGGAA
Result string: 1.07

Query string: Fill in the recorded switch fluorescence ratio for this sequence, with ATP as test system: TTTTTAAGCA
Result string: 1.02

Query string: Fill in the recorded switch fluorescence ratio for this sequence, with ATP as test system: CCGGTAGGGT
Result string: 1.36

Query string: Fill in the recorded switch fluorescence ratio for this sequence, with ATP as test system: GGGGTGGTAA
Result string: 1.01

Query string: Fill in the recorded switch fluorescence ratio for this sequence, with ATP as test system: TAAATTAATC
Result string: 1.01

Query string: Fill in the recorded switch fluorescence ratio for this sequence, with ATP as test system: TTTTCGAGCT
Result string: 1.01

Query string: Fill in the recorded switch fluorescence ratio for this sequence, with ATP as test system: GAATGTGCAT
Result string: 1.05

Query string: Fill in the recorded switch fluorescence ratio for this sequence, with ATP as test system: TAAAAATGAG
Result string: 1.01

Query string: Fill in the recorded switch fluorescence ratio for this sequence, with ATP as test system: AAATTTTACT
Result string: 1.02

Query string: Fill in the recorded switch fluorescence ratio for this sequence, with ATP as test system: CGTTTTTAAT
Result string: 1.01

Query string: Fill in the recorded switch fluorescence ratio for this sequence, with ATP as test system: AATAGGGCAG
Result string: 1.01

Query string: Fill in the recorded switch fluorescence ratio for this sequence, with ATP as test system: TCCCCCTGGT
Result string: 1.37

Query string: Fill in the recorded switch fluorescence ratio for this sequence, with ATP as test system: TCGGGTTTTA
Result string: 1.03

Query string: Fill in the recorded switch fluorescence ratio for this sequence, with ATP as test system: TTCCGGCTCT
Result string: 1.61

Query string: Fill in the recorded switch fluorescence ratio for this sequence, with ATP as test system: GCGAGCCAGG
Result string: 2.17
